measurement_target: Kv12.1 (Elk1) (Homo sapiens, UniProt Q96L42)
Sequence (Q96L42 1-1107): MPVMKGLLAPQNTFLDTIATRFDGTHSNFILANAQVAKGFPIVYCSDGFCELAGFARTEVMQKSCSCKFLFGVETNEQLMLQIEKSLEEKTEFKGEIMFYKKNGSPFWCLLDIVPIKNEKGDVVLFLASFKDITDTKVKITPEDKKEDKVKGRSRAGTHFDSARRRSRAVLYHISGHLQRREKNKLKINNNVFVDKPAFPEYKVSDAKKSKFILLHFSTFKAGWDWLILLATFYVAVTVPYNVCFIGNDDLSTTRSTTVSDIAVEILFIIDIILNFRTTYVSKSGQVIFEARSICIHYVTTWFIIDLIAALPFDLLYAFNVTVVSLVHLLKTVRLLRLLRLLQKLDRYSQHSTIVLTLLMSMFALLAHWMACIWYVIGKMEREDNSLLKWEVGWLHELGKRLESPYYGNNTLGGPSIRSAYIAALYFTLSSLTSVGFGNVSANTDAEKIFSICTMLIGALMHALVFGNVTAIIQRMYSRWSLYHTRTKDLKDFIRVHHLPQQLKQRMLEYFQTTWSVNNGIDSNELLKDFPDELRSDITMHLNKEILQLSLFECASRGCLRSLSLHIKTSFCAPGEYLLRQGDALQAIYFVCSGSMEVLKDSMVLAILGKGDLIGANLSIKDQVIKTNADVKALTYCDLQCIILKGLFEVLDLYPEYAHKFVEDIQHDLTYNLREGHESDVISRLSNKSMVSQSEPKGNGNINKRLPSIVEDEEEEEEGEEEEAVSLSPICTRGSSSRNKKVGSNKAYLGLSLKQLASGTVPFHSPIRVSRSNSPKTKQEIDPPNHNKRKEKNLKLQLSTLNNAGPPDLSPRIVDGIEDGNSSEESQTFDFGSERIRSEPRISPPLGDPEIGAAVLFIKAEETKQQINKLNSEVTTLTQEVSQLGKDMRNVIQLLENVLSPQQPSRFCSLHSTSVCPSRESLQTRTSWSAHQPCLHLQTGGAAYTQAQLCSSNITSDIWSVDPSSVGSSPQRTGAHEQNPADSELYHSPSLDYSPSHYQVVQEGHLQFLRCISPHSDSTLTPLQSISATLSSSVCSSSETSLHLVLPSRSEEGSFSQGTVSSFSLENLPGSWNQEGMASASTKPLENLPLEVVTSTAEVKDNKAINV
experiment: whole-cell patch clamp in transfected CHO cells
Format: cell-based
property_name: pIC50
One number for each entry, as −log10 of the molar value.

What the record says about `C=C[C@H]1C[N@@]2CC[C@H]1C[C@H]2[C@H](O)c1ccnc2ccc(OC)cc12` : pIC50 is 3.01
